Measured Ks on Urokinase-type plasminogen activator (Homo sapiens) follows.
Numeric only. Scale: µM

Use these answered entries as a reference point.
- N=C(N)Nc1ccc(C2CC/C(=C\I)OC2=O)cc1 (centres undefined): 0.16
- C=C1CC(c2ccc(NC(=N)N)cc2)CC(=O)O1 (centres undefined): 0.12
- C=C1CCC(c2ccc(NC(=N)N)cc2)C(=O)O1 (centres undefined): 0.33

Moving on to the next compound.
Asked: Please indicate Ks recorded for N=C(N)Nc1ccc(C2CC(=O)O/C(=C/I)C2)cc1 (centres undefined)
Given back: 7.83

---

Target: UniProt:P00734
Test: Maximum percent inhibition by the compound was determined against thrombin (1.93 nM)
MEASURE NAME: inhibition
The reply must contain the numeric value and, after it, the unit.

Use these answered entries as a reference point.
- N=C(N)Nc1ccc(C2CC(=O)O/C(=C/I)C2)cc1 (centres undefined): 38%
- C=C1CCC(c2ccc(NC(=N)N)cc2)C(=O)O1 (centres undefined): 7%
- C=C1CC(c2ccc(NC(=N)N)cc2)CC(=O)O1 (centres undefined): 40%

Moving on to the next molecule.
Asked: Please indicate inhibition recorded for N=C(N)Nc1ccc(C2CC/C(=C\I)OC2=O)cc1 (centres undefined)
Given back: 93%

---

Biological target: Tissue-type plasminogen activator (Homo sapiens) (UniProt P00750)
Sequence (P00750 36-562 limits assumed): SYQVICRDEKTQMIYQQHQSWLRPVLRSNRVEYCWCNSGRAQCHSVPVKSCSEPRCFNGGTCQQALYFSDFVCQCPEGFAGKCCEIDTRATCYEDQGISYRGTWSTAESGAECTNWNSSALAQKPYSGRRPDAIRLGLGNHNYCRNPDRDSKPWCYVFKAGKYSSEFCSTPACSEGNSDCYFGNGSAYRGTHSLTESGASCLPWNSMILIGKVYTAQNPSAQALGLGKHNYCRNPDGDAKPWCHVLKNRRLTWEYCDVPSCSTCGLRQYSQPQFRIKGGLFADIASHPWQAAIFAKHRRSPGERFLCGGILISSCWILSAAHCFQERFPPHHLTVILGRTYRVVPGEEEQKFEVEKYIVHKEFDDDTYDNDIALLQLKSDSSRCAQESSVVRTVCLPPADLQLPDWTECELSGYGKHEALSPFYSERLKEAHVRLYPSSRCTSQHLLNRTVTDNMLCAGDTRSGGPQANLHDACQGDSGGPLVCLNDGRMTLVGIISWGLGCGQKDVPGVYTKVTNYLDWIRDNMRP
Test: Time to reach maximum percent inhibition by the compound was determined against Tissue plasminogen activator (19.4 nM)
Format: functional
MEASURE NAME: TIME (h)
Numeric only. Scale: h

Use these answered entries as a reference point.
• N=C(N)Nc1ccc(C2CC/C(=C\I)OC2=O)cc1 (centres undefined) = 0.25
• C=C1CCC(c2ccc(NC(=N)N)cc2)C(=O)O1 (centres undefined) = 0

Asked: Please indicate TIME recorded for N=C(N)Nc1ccc(C2CC(=O)O/C(=C/I)C2)cc1 (centres undefined)
Given back: 0

Asked: Please indicate TIME recorded for C=C1CC(c2ccc(NC(=N)N)cc2)CC(=O)O1 (centres undefined)
Given back: 0.25

---

Recorded Ratio for the following molecules
Test: Ratio of initial inhibitor concentration to initial Chymotrypsinogen concentration

Use these answered entries as a reference point.
• N=C(N)Nc1ccc(C2CC/C(=C\I)OC2=O)cc1 (centres undefined) = 118 Io/Eo
• N=C(N)Nc1ccc(C2CC(=O)O/C(=C/I)C2)cc1 (centres undefined) = 118 Io/Eo
• C=C1CC(c2ccc(NC(=N)N)cc2)CC(=O)O1 (centres undefined) = 118 Io/Eo

Asked: Please indicate Ratio recorded for C=C1CCC(c2ccc(NC(=N)N)cc2)C(=O)O1 (centres undefined)
Given back: 118 Io/Eo

---

Experiment: Ratio of initial inhibitor concentration to initial trypsin concentration
Recorded Ratio for the following compounds
Numeric only. Scale: Io/Eo

Asked: Please indicate Ratio recorded for C=C1CC(c2ccc(NC(=N)N)cc2)CC(=O)O1 (centres undefined)
Given back: 86

Asked: Please indicate Ratio recorded for N=C(N)Nc1ccc(C2CC(=O)O/C(=C/I)C2)cc1 (centres undefined)
Given back: 86

Asked: Please indicate Ratio recorded for N=C(N)Nc1ccc(C2CC/C(=C\I)OC2=O)cc1 (centres undefined)
Given back: 86

Asked: Please indicate Ratio recorded for C=C1CCC(c2ccc(NC(=N)N)cc2)C(=O)O1 (centres undefined)
Given back: 86

---

Target: Plasminogen (Homo sapiens) (UniProt P00747)
Sequence (P00747 97-580 limits assumed): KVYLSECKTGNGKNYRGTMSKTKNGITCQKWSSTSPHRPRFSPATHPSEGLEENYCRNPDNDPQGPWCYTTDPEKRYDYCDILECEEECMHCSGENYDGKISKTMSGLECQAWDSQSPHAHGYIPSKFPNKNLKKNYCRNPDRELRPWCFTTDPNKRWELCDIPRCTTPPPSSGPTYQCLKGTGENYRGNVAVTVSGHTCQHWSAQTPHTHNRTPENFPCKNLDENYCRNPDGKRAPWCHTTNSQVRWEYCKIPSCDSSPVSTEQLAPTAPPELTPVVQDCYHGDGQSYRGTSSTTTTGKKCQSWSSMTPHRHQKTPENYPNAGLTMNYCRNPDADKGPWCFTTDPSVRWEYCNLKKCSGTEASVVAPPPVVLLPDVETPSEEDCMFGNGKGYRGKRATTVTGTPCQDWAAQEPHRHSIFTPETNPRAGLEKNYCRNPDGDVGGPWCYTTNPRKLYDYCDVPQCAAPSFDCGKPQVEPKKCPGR
Sequence (P00747 581-810 limits assumed): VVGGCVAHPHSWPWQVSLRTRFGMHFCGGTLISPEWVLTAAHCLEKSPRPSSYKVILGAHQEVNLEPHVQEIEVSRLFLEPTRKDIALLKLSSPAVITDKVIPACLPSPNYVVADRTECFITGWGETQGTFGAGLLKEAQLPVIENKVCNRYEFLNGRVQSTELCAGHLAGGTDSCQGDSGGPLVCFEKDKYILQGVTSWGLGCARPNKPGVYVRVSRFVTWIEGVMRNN
Experiment: Time to reach maximum percent inhibition by the compound was determined against plasmin(625 nM)
Type: functional
MEASURE NAME: TIME (h)
Numeric only. Scale: h

Asked: Please indicate TIME recorded for C=C1CCC(c2ccc(NC(=N)N)cc2)C(=O)O1 (centres undefined)
Given back: 0

Asked: Please indicate TIME recorded for N=C(N)Nc1ccc(C2CC(=O)O/C(=C/I)C2)cc1 (centres undefined)
Given back: 1

Asked: Please indicate TIME recorded for N=C(N)Nc1ccc(C2CC/C(=C\I)OC2=O)cc1 (centres undefined)
Given back: 0

Asked: Please indicate TIME recorded for C=C1CC(c2ccc(NC(=N)N)cc2)CC(=O)O1 (centres undefined)
Given back: 0
